Cited source for all entries: patent US20220177587A1

- target or test system: CD28 (human) (UniProt P10747)
- procedure details: flow cytometry, Expi293F cells transfected with CD28
Kindly return True if reported parental ratio is no lower than 0.09; return False if it is lower.

Query :: Reported parental ratio reaches at least 0.09 for CD80 S44P/L70Q/A91G/T130A ECD-Fc (Fc fusion) VIHVTKEVKEVATLSCGHNVSVEELAQTRIYWQKEKKMVLTMMPGDMNIWPEYKNRTIFDITNNLSIVIQALRPSDEGTYECVVLKYEKDGFKREHLAEVTLSVKADFPTPSISDFEIPTSNIRRIICSASGGFPEPHLSWLENGEELNAINTTVSQDPETELYAVSSKLDFNMTTNHSFMCLIKYGHLRVNQTFNWNTTKQEHFPDN ?
Result :: True

Query :: Please check the record CD80 A12V/S15F/Y31H/M38L/T41G/M43L/D90N/T130A/P137L/N149D/N152T ECD-Fc (Fc fusion) VIHVTKEVKEVVTLFCGHNVSVEELAQTRIHWQKEKKLVLGMLSGDMNIWPEYKNRTIFDITNNLSIVILALRPSDEGTYECVVLKYEKNAFKREHLAEVTLSVKADFPTPSISDFEIPTSNIRRIICSASGGFPELHLSWLENGEELDAITTTVSQDPETELYAVSSKLDFNMTTNHSFMCLIKYGHLRVNQTFNWNTTKQEHFPDN and state if its parental ratio is at or above 0.09.
Result :: False

Query :: Identify whether the reported parental ratio of the following binder is 0.09 or greater: CD80 I67T/L70Q/A91G/I118V/T120S ECD-Fc (Fc fusion) VIHVTKEVKEVATLSCGHNVSVEELAQTRIYWQKEKKMVLTMMSGDMNIWPEYKNRTIFDITNNLSTVIQALRPSDEGTYECVVLKYEKDGFKREHLAEVTLSVKADFPTPSISDFEVPSSNIRRIICSTSGGFPEPHLSWLENGEELNAINTTVSQDPETELYAVSSKLDFNMTTNHSFMCLIKYGHLRVNQTFHWNTTKQEHFPDN
Result :: True

Query :: # bool: parental ratio of CD80 I67F/L70R/E88G/A91G/I118V/T120S/T130A ECD-Fc (Fc fusion) VIHVTKEVKEVATLSCGHNVSVEELAQTRIYWQKEKKMVLTMMSGDMNIWPEYKNRTIFDITNNLSFVIRALRPSDEGTYECVVLKYGKDGFKREHLAEVTLSVKADFPTPSISDFEVPSSNIRRIICSASGGFPEPHLSWLENGEELNAINTTVSQDPETELYAVSSKLDFNMTTNHSFMCLIKYGHLRVNQTFNWNTTKQEHFPDN >= 0.09
Result :: False
